Reference source for all entries: PubChem BioAssay AID1963441

Please go through the items and note down their viability, T/C.
System: NCI-H1876 complex spheroid growth, % test/control
Assay: Anticancer human tumor NCI-H1876 cell line growth inhibition [Asc];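 further: compound exposure lasted 7 days starting three days after seeding; 100% = DMSO vehicle control wells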
Setup Conditions: second compound 0.0316 µM; first compound 10 µM; active compounds read low
Numbers only, in %.

{"Compound": "C=CC(=O)N1CCN(c2nc(=O)n(-c3c(C)ccnc3C(C)C)c3nc(-c4c(O)cccc4F)c(F)cc23)C(C)C1 (stereo not drawn) + Cc1c(S(C)(=O)=O)c(-c2cc(F)cc(N3CCN(c4ccc(NS(=O)(=O)c5ccc(NC(CCN6CCC(C(=O)OCCCP(=O)(O)O)CC6)CSc6ccccc6)c(S(=O)(=O)C(F)(F)F)c5)cc4)CC3)c2)c(-c2ccc(Cl)cc2)n1C(C)C", "Reported Metric": "viability, T/C", "Unit Annotation": "%", "Numeric Readout": 109}

Lab note: each compound below needs its viability, T/C filled in.
1. C=CC(=O)N1CCN(c2nc(=O)n(-c3c(C)ccnc3C(C)C)c3nc(-c4c(O)cccc4F)c(F)cc23)C(C)C1 (stereo not drawn) + CNC(C)C(=O)NC1CN(S(=O)(=O)c2cccc(S(=O)(=O)N3CCC4CCC(C(=O)NC(c5ccccc5)c5ccccc5)N4C(=O)C(NC(=O)C(C)NC)C3)c2)CCC2CCC(C(=O)NC(c3ccccc3)c3ccccc3)N2C1=O
2. C=C(F)C(=O)N1CCN(c2nc(OCC3CCCN3C)nc3c2CCN(c2cccc4cccc(Cl)c24)C3)CC1CC#N (stereo not drawn) + Cc1c(S(C)(=O)=O)c(-c2cc(F)cc(N3CCN(c4ccc(NS(=O)(=O)c5ccc(NC(CCN6CCC(C(=O)OCCCP(=O)(O)O)CC6)CSc6ccccc6)c(S(=O)(=O)C(F)(F)F)c5)cc4)CC3)c2)c(-c2ccc(Cl)cc2)n1C(C)C
3. C#Cc1c(F)ccc2cc(O)cc(-c3ncc4c(N5CC6CCC(C5)N6)nc(OCC56CCCN5CC(F)C6)nc4c3F)c12 (stereo not drawn) + CNC(C)C(=O)NC1CN(S(=O)(=O)c2cccc(S(=O)(=O)N3CCC4CCC(C(=O)NC(c5ccccc5)c5ccccc5)N4C(=O)C(NC(=O)C(C)NC)C3)c2)CCC2CCC(C(=O)NC(c3ccccc3)c3ccccc3)N2C1=O
4. O=C(c1cc(Cc2n[nH]c(=O)c3ccccc23)ccc1F)N1CCN(C(=O)C2CC2)CC1 + CNC(C)C(=O)NC1CN(S(=O)(=O)c2cccc(S(=O)(=O)N3CCC4CCC(C(=O)NC(c5ccccc5)c5ccccc5)N4C(=O)C(NC(=O)C(C)NC)C3)c2)CCC2CCC(C(=O)NC(c3ccccc3)c3ccccc3)N2C1=O
5. O=C(c1cc(Cc2n[nH]c(=O)c3ccccc23)ccc1F)N1CCN(C(=O)C2CC2)CC1 + Cc1c(S(C)(=O)=O)c(-c2cc(F)cc(N3CCN(c4ccc(NS(=O)(=O)c5ccc(NC(CCN6CCC(C(=O)OCCCP(=O)(O)O)CC6)CSc6ccccc6)c(S(=O)(=O)C(F)(F)F)c5)cc4)CC3)c2)c(-c2ccc(Cl)cc2)n1C(C)C
6. C=C(F)C(=O)N1CCN(c2nc(OCC3CCCN3C)nc3c2CCN(c2cccc4cccc(Cl)c24)C3)CC1CC#N (stereo not drawn) + CNC(C)C(=O)NC1CN(S(=O)(=O)c2cccc(S(=O)(=O)N3CCC4CCC(C(=O)NC(c5ccccc5)c5ccccc5)N4C(=O)C(NC(=O)C(C)NC)C3)c2)CCC2CCC(C(=O)NC(c3ccccc3)c3ccccc3)N2C1=O

[114, 5.25, 95.7, 69.8, 74, 0.33]

Identify measured viability, T/C corresponding to C#Cc1c(F)ccc2cc(O)cc(-c3ncc4c(N5CC6CCC(C5)N6)nc(OCC56CCCN5CC(F)C6)nc4c3F)c12 (stereo not drawn) + Cc1c(S(C)(=O)=O)c(-c2cc(F)cc(N3CCN(c4ccc(NS(=O)(=O)c5ccc(NC(CCN6CCC(C(=O)OCCCP(=O)(O)O)CC6)CSc6ccccc6)c(S(=O)(=O)C(F)(F)F)c5)cc4)CC3)c2)c(-c2ccc(Cl)cc2)n1C(C)C
92.9

----------
System: NCI-H1876 complex spheroid growth, % test/control
Assay: Anticancer human tumor NCI-H1876 cell line growth inhibition [Asc];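 further: compound exposure lasted 7 days starting three days after seeding; 100% = DMSO vehicle control wells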
Setup Conditions: second compound 0.316 µM; first compound 3.16 µM; active compounds read low
Please go through the items and note down their viability, T/C.

{"Compound": "C=CC(=O)N1CCN(c2nc(=O)n(-c3c(C)ccnc3C(C)C)c3nc(-c4c(O)cccc4F)c(F)cc23)C(C)C1 (stereo not drawn) + Cc1c(S(C)(=O)=O)c(-c2cc(F)cc(N3CCN(c4ccc(NS(=O)(=O)c5ccc(NC(CCN6CCC(C(=O)OCCCP(=O)(O)O)CC6)CSc6ccccc6)c(S(=O)(=O)C(F)(F)F)c5)cc4)CC3)c2)c(-c2ccc(Cl)cc2)n1C(C)C", "Measured On": "NCI-H1876 complex spheroid growth, % test/control", "viability, T/C": "109%"}

Lab note: each compound below needs its viability, T/C filled in.
1. O=C(c1cc(Cc2n[nH]c(=O)c3ccccc23)ccc1F)N1CCN(C(=O)C2CC2)CC1 + CNC(C)C(=O)NC1CN(S(=O)(=O)c2cccc(S(=O)(=O)N3CCC4CCC(C(=O)NC(c5ccccc5)c5ccccc5)N4C(=O)C(NC(=O)C(C)NC)C3)c2)CCC2CCC(C(=O)NC(c3ccccc3)c3ccccc3)N2C1=O
2. C#Cc1c(F)ccc2cc(O)cc(-c3ncc4c(N5CC6CCC(C5)N6)nc(OCC56CCCN5CC(F)C6)nc4c3F)c12 (stereo not drawn) + CNC(C)C(=O)NC1CN(S(=O)(=O)c2cccc(S(=O)(=O)N3CCC4CCC(C(=O)NC(c5ccccc5)c5ccccc5)N4C(=O)C(NC(=O)C(C)NC)C3)c2)CCC2CCC(C(=O)NC(c3ccccc3)c3ccccc3)N2C1=O

1. 104%
2. 107%

----------
Please go through the items and note down their viability, T/C.
Tested on: NCI-H1876 complex spheroid growth, % test/control
Assay: Anticancer human tumor NCI-H1876 cell line growth inhibition [Asc];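 further: compound exposure lasted 7 days starting three days after seeding; 100% = DMSO vehicle control wells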
Setup Conditions: second compound 0.0949 µM; first compound 10 µM; active compounds read low
Numbers only, in %.

These recorded examples may help you get a feel for the data.
{"Compound": "C=CC(=O)N1CCN(c2nc(=O)n(-c3c(C)ccnc3C(C)C)c3nc(-c4c(O)cccc4F)c(F)cc23)C(C)C1 (centres undefined) + CCN1C(C(=O)NC23CCC(C(=O)O)(CC2)CC3)C(c2cccc(Cl)c2F)C2(C(=O)Nc3cc(Cl)ccc32)C12CCCCC2", "Measured On": "NCI-H1876 complex spheroid growth, % test/control", "viability, T/C / %": 107}
{"Compound": "O=C(c1cc(Cc2n[nH]c(=O)c3ccccc23)ccc1F)N1CCN(C(=O)C2CC2)CC1 + CCN1C(C(=O)NC23CCC(C(=O)O)(CC2)CC3)C(c2cccc(Cl)c2F)C2(C(=O)Nc3cc(Cl)ccc32)C12CCCCC2", "Measured On": "NCI-H1876 complex spheroid growth, % test/control", "viability, T/C / %": 85.5}
{"Compound": "C#Cc1c(F)ccc2cc(O)cc(-c3ncc4c(N5CC6CCC(C5)N6)nc(OCC56CCCN5CC(F)C6)nc4c3F)c12 (centres undefined) + CCN1C(C(=O)NC23CCC(C(=O)O)(CC2)CC3)C(c2cccc(Cl)c2F)C2(C(=O)Nc3cc(Cl)ccc32)C12CCCCC2", "Measured On": "NCI-H1876 complex spheroid growth, % test/control", "viability, T/C / %": 88.4}

Please turn your attention to the following entry.
Identify measured viability, T/C corresponding to C=C(F)C(=O)N1CCN(c2nc(OCC3CCCN3C)nc3c2CCN(c2cccc4cccc(Cl)c24)C3)CC1CC#N (centres undefined) + CCN1C(C(=O)NC23CCC(C(=O)O)(CC2)CC3)C(c2cccc(Cl)c2F)C2(C(=O)Nc3cc(Cl)ccc32)C12CCCCC2
26

----------
Tested on: NCI-H1876 complex spheroid growth, % test/control
Assay: Anticancer human tumor NCI-H1876 cell line growth inhibition [Asc];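 further: compound exposure lasted 7 days starting three days after seeding; 100% = DMSO vehicle control wells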
Setup Conditions: second compound 0.1 µM; first compound 0.03 µM; active compounds read low
Please go through the items and note down their viability, T/C.
Give bare numbers, in %.

These recorded examples may help you get a feel for the data.
{"Compound": "NC(=O)C(=Cn1cnc(-c2cc(C(F)(F)F)cc(C(F)(F)F)c2)n1)c1cncnc1 + CNC(C)C(=O)NC1CN(S(=O)(=O)c2cccc(S(=O)(=O)N3CCC4CCC(C(=O)NC(c5ccccc5)c5ccccc5)N4C(=O)C(NC(=O)C(C)NC)C3)c2)CCC2CCC(C(=O)NC(c3ccccc3)c3ccccc3)N2C1=O", "Measured On": "NCI-H1876 complex spheroid growth, % test/control", "Unit Annotation": "%", "Numeric Readout": 104}
{"Compound": "Cc1nc(N2CCC3(CC2)COC(C)C3N)c(CO)nc1Sc1ccnc(N)c1Cl (stereo not given) + CNC(C)C(=O)NC1CN(S(=O)(=O)c2cccc(S(=O)(=O)N3CCC4CCC(C(=O)NC(c5ccccc5)c5ccccc5)N4C(=O)C(NC(=O)C(C)NC)C3)c2)CCC2CCC(C(=O)NC(c3ccccc3)c3ccccc3)N2C1=O", "Measured On": "NCI-H1876 complex spheroid growth, % test/control", "Unit Annotation": "%", "Numeric Readout": 88.4}
{"Compound": "Cc1nc(N2CCC3(CC2)COC(C)C3N)c(CO)nc1Sc1ccnc(N)c1Cl (stereo not given) + Cc1c(S(C)(=O)=O)c(-c2cc(F)cc(N3CCN(c4ccc(NS(=O)(=O)c5ccc(NC(CCN6CCC(C(=O)OCCCP(=O)(O)O)CC6)CSc6ccccc6)c(S(=O)(=O)C(F)(F)F)c5)cc4)CC3)c2)c(-c2ccc(Cl)cc2)n1C(C)C", "Measured On": "NCI-H1876 complex spheroid growth, % test/control", "Unit Annotation": "%", "Numeric Readout": 101}

Lab note: each compound below needs its viability, T/C filled in.
1. CCN1C(C(=O)NC23CCC(C(=O)O)(CC2)CC3)C(c2cccc(Cl)c2F)C2(C(=O)Nc3cc(Cl)ccc32)C12CCCCC2 (stereo not given) + CNC(C)C(=O)NC1CN(S(=O)(=O)c2cccc(S(=O)(=O)N3CCC4CCC(C(=O)NC(c5ccccc5)c5ccccc5)N4C(=O)C(NC(=O)C(C)NC)C3)c2)CCC2CCC(C(=O)NC(c3ccccc3)c3ccccc3)N2C1=O
2. CCN1C(C(=O)NC23CCC(C(=O)O)(CC2)CC3)C(c2cccc(Cl)c2F)C2(C(=O)Nc3cc(Cl)ccc32)C12CCCCC2 (stereo not given) + Cc1c(S(C)(=O)=O)c(-c2cc(F)cc(N3CCN(c4ccc(NS(=O)(=O)c5ccc(NC(CCN6CCC(C(=O)OCCCP(=O)(O)O)CC6)CSc6ccccc6)c(S(=O)(=O)C(F)(F)F)c5)cc4)CC3)c2)c(-c2ccc(Cl)cc2)n1C(C)C

111
105
